Numbers sourced from patent US12421276B2.

Type: in vivo, rat
EXPERIMENTAL_CONDITIONS: Rat, PO, 10 mg/kg equiv., n = 4; analyte: Parent (BASE STRUCTURE)
Where a SMILES comes first, the peptide text is derived from it. [ ]: non-standard residue; d: D form. The star is where a group is joined. ξ: configuration not given here. ξpY = NC(Cc1ccc(OP(=O)(O)O)cc1)C(=O)O; Ile(3ξ) = CCC(C)[C@H](N)C(=O)O; Hexanoyl = CCCCCC(=O)*; Ahx = NCCCCCC(=O)O
Hi there, I'd appreciate the recorded Cmax for every entry that follows.
A number alone suffices; assume ng/mL.

Please look up its Cmax: CCCCCC(=O)NC(Cc1ccc(OC(=O)N2CCN(C)CC2)cc1)C(=O)NC(C(=O)NCCCCCC(N)=O)C(C)CC (centres unmarked) [Compound A20]
1.7

Entry CCCCCC(=O)NC(Cc1ccc(OP(=O)(OCCN(C)C)OCCN(C)C)cc1)C(=O)NC(C(=O)NCCCCCC(N)=O)C(C)CC (centres unmarked) [Compound A18] has what Cmax?
3.1

I have this molecule here, CCCCCC(=O)NC(Cc1ccc(OP(=O)(O)O)cc1)C(=O)N[C@H](C(=O)NCCCCCC(N)=O)C(C)CC.N.N (some centres unmarked) [Compound A29] (Hexanoyl-[ξpY]-[Ile(3ξ)]-[Ahx]-NH2) , and I need its recorded Cmax.
39.7

Could you share which Cmax value was measured for CCCCCC(=O)N[C@@H](Cc1ccc(O)cc1)C(=O)N[C@H](C(=O)NCCCCCC(N)=O)[C@@H](C)CC [Base Structure, reference compound] (Hexanoyl-Tyr-Ile-[Ahx]-NH2) ?
0.9

Recorded Cmax of CCCCCC(=O)NC(Cc1ccc(OC(=O)NCCN(C)C)cc1)C(=O)NC(C(=O)NCCCCCC(N)=O)C(C)CC (centres unmarked) [Compound A21] , please.
0.6
